Just for reference, the RNAGym collection of RNA variant scans (doi:10.7554/elife.80360) is where these values come from.

B1: CPEB3 Ribozyme (parent)
chain: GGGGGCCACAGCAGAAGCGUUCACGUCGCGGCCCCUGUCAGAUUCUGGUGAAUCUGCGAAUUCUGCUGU

Variants of: B1
protocol-text: self-cleavage, relative activity (ratio to wild type); higher = more cleavage; co-transcriptional
Classes (self-cleavage): lowest: < 0.2; middle: ≥ 0.2 and < 0.6; highest: ≥ 0.6

INSERT INTO measurements (mutations, category) VALUES
  ('G5U U62A', 'lowest'),
  ('C29G U49A', 'middle'),
  ('A51C C57A', 'middle'),
  ('C18U G47A', 'highest'),
  ('G1U G68C', 'lowest'),
  ('U20G U36C', 'lowest'),
  ('A15U C27A', 'lowest'),
  ('C22A C29U', 'lowest'),
  ('A13U U20G', 'lowest'),
  ('G30C C57G', 'middle'),
  ('G58A G68A', 'highest'),
  ('U20A C32U', 'lowest'),
  ('C24G U46A', 'middle'),
  ('G19A', 'lowest'),
  ('G5A A51C', 'highest'),
  ('G4A G17C', 'lowest'),
  ('G58U C66A', 'highest'),
  ('C22A C24G', 'middle'),
  ('G56A U62G', 'highest'),
  ('U46C U62A', 'highest'),
  ('C34U U62G', 'highest'),
  ('U20C C34G', 'lowest'),
  ('A40U G48C', 'highest'),
  ('G41C C45G', 'middle'),
  ('G25C A60C', 'lowest'),
  ('G1A C57A', 'lowest'),
  ('G14U G19A', 'lowest'),
  ('C54U G68A', 'highest'),
  ('C18U C54U', 'highest'),
  ('G25C U38C', 'lowest'),
  ('C35U U36G', 'middle'),
  ('G1C', 'middle'),
  ('C18A C32U', 'middle'),
  ('C12G C39U', 'middle'),
  ('C24G U36A', 'lowest'),
  ('A8G C45U', 'highest'),
  ('G25A U53G', 'lowest'),
  ('A13U A52U', 'highest'),
  ('C12A G47U', 'highest'),
  ('U46G C57A', 'middle'),
  ('G30A A42G', 'highest'),
  ('C35U A52U', 'highest'),
  ('C24U U43G', 'middle'),
  ('C32A U64C', 'middle'),
  ('G4A U46C', 'highest'),
  ('U38G U44C', 'middle'),
  ('C45U C66A', 'highest'),
  ('G2A A59U', 'lowest'),
  ('G41U U69A', 'highest'),
  ('C45G C54U', 'highest'),
  ('G2C C6A', 'lowest'),
  ('G2U U67A', 'lowest'),
  ('U21A U64A', 'highest'),
  ('C12U U67A', 'highest'),
  ('G11C A59C', 'middle'),
  ('A42U G68A', 'highest'),
  ('C7U U43A', 'highest'),
  ('G14U C39G', 'middle'),
  ('A42G G56A', 'highest'),
  ('U44G A60C', 'middle'),
  ('C6U', 'highest'),
  ('G4A C24A', 'middle'),
  ('G4C G11C', 'middle'),
  ('C33G A60C', 'middle'),
  ('A59G A60U', 'middle'),
  ('C24A U53G', 'middle'),
  ('G19U G31U', 'lowest'),
  ('A16C U67G', 'middle'),
  ('U44A U53G', 'highest'),
  ('G17A C34U', 'middle'),
  ('C7G U55A', 'lowest'),
  ('G11C U20C', 'lowest'),
  ('G3A A42U', 'middle'),
  ('G50A U62A', 'highest'),
  ('C24G U46G', 'middle'),
  ('A40U G65C', 'middle'),
  ('U21C U62C', 'middle'),
  ('G30U C39G', 'middle'),
  ('G37U C63G', 'middle'),
  ('G2C G56A', 'lowest'),
  ('G47C C54U', 'highest'),
  ('G37A C39U', 'middle'),
  ('G5C G11U', 'lowest'),
  ('G17U U61A', 'middle'),
  ('U49C A59U', 'highest'),
  ('G2U C39A', 'lowest');
